- assayInfo: Pharmacokinetic food-effect study, single 20 mg/kg dose, healthy subjects (Example 17)
- conditionContext: human, in vivo, po, 20 mg/kg, AUC0-16, cannabidiol, single 20 mg/kg oral, fasted; mean ± SD
valueKind: AUC(0-t) (ng·h/mL)

[[record]]
compoundstring = "C=C(C)[C@@H]1CCC(C)=C[C@H]1c1c(O)cc(CCCCC)cc1O"
unitannotation = "ng·h/mL"
valuemeasured = 9.76


----------
- assayInfo: Pharmacokinetic food-effect study, single 20 mg/kg dose, healthy subjects (Example 17)
- conditionContext: human, in vivo, po, 20 mg/kg, AUC0-3, cannabidiol, single 20 mg/kg oral, fasted; mean ± SD
valueKind: AUC(0-t)

[[record]]
molecule = "C=C(C)[C@@H]1CCC(C)=C[C@H]1c1c(O)cc(CCCCC)cc1O [cannabidiol]"
valuemeasured = "5.88 ng·h/mL"


----------
- assayInfo: Pharmacokinetic food-effect study, single 20 mg/kg dose, healthy subjects (Example 17)
- conditionContext: human, in vivo, po, 20 mg/kg, AUC0-8, cannabidiol, single 20 mg/kg oral, fed; mean ± SD
valueKind: AUC(0-t) (ng·h/mL)

[[record]]
compound = "C=C(C)[C@@H]1CCC(C)=C[C@H]1c1c(O)cc(CCCCC)cc1O [cannabidiol]"
unitannotation = "ng·h/mL"
valuemeasured = 819


----------
- assayInfo: Pharmacokinetic food-effect study, single 20 mg/kg dose, healthy subjects (Example 17)
- conditionContext: human, in vivo, po, 20 mg/kg, AUC0-0.25, cannabidiol, single 20 mg/kg oral, fasted; mean ± SD
valueKind: AUC(0-t)

[[record]]
molecule = "C=C(C)[C@@H]1CCC(C)=C[C@H]1c1c(O)cc(CCCCC)cc1O [cannabidiol]"
valuemeasured = "0.363 ng·h/mL"


----------
- assayInfo: Pharmacokinetic food-effect study, single 20 mg/kg dose, healthy subjects (Example 17)
- conditionContext: human, in vivo, po, 20 mg/kg, AUC0-96, cannabidiol, single 20 mg/kg oral, fed; mean ± SD
valueKind: AUC(0-t) (ng·h/mL)

[[record]]
compoundstring = "C=C(C)[C@@H]1CCC(C)=C[C@H]1c1c(O)cc(CCCCC)cc1O"
valuekind = "AUC(0-t)"
valuemeasured = 7.86


----------
- assayInfo: Pharmacokinetic food-effect study, single 20 mg/kg dose, healthy subjects (Example 17)
- conditionContext: human, in vivo, po, 20 mg/kg, AUC0-6, cannabidiol, single 20 mg/kg oral, fasted; mean ± SD
valueKind: AUC(0-t) (ng·h/mL)

[[record]]
molecule = "C=C(C)[C@@H]1CCC(C)=C[C@H]1c1c(O)cc(CCCCC)cc1O [cannabidiol]"
valuemeasured = 12

